Provenance of the data: patent US20250382332A1

Tested on: Botrytis cinerea (B05.10)
Assay: Resazurin antifungal assay of 180 alpha-factor peptide variants towards Botrytis (Example 2)
Type: cell-based
Settings: % inhibition of fungal growth, Botrytis conidia, peptide 15 μM, resazurin
Peptide text beside a SMILES is read from it.
assay metric: Inhibition at 15 μM

Answered examples (3):
compound | Inhibition at 15 μM
CSCC[C@H](NC(=O)CNC(=O)[C@H](CO)NC(=O)CNC(=O)[C@@H]1CCCN1C(=O)[C@H](CCCCN)NC(=O)[C@H](Cc1ccccc1)NC(=O)[C@H](CCC(N)=O)NC(=O)[C@H](CC(C)C)NC(=O)[C@H](Cc1c[nH]c2ccccc12)NC(=O)[C@H](Cc1c[nH]cn1)NC(=O)[C@@H](N)CCCCN)C(=O)N[C@@H](Cc1ccc(O)cc1)C(=O)O [compound 64] (H-KHWLQFKPGSGMY-OH; N-terminus and C-terminus assumed) | <90%
CSCC[C@H](NC(=O)[C@@H]1CCCN1C(=O)[C@H](CCC(N)=O)NC(=O)CNC(=O)[C@@H]1CCCN1C(=O)[C@H](CCCCN)NC(=O)[C@H](Cc1ccccc1)NC(=O)[C@H](CCCNC(=N)N)NC(=O)[C@H](CC(C)C)NC(=O)[C@@H](NC(=O)[C@H](Cc1c[nH]cn1)NC(=O)[C@@H](N)CCCCN)[C@@H](C)O)C(=O)N[C@@H](Cc1ccc(O)cc1)C(=O)O [compound 80] (H-KHTLRFKPGQPMY-OH; N-terminus and C-terminus assumed) | <90%
CC[C@H](C)[C@H](NC(=O)[C@H](Cc1c[nH]c2ccccc12)NC(=O)[C@H](Cc1c[nH]cn1)NC(=O)[C@@H](N)CCCCN)C(=O)N[C@@H](CCCCN)C(=O)N[C@@H](CC(C)C)C(=O)N[C@@H](CCCCN)C(=O)N[C@@H](CC(N)=O)C(=O)NCC(=O)N[C@@H](CCC(N)=O)C(=O)N1CCC[C@H]1C(=O)N[C@@H](CCSC)C(=O)N[C@@H](Cc1ccc(O)cc1)C(=O)O [compound 81] (H-KHWIKLKNGQPMY-OH; N-terminus and C-terminus assumed) | <90%

Task: Entry CSCC[C@H](NC(=O)[C@@H]1CCCN1C(=O)[C@H](CCC(N)=O)NC(=O)CNC(=O)[C@@H]1CCCN1C(=O)[C@H](Cc1ccccc1)NC(=O)[C@H](CC(C)C)NC(=O)[C@H](CCCCN)NC(=O)[C@H](CC(C)C)NC(=O)[C@H](Cc1c[nH]c2ccccc12)NC(=O)[C@H](Cc1c[nH]cn1)NC(=O)[C@@H](N)CCCCN)C(=O)N[C@@H](Cc1ccc(O)cc1)C(=O)O [compound 61] (H-KHWLKLFPGQPMY-OH; N-terminus and C-terminus assumed) has what Inhibition at 15 μM?
Output: <90%

* * *

Test system: Botrytis cinerea (B05.10)
Assay: Resazurin antifungal assay of 180 alpha-factor peptide variants towards Botrytis (Example 2)
Format: cell-based
Conditions: % inhibition of fungal growth, Botrytis conidia, peptide 100 μM, resazurin
Peptide text beside a SMILES is read from it.
Measured Inhibition at 100 μM, listed per entry.

Answered examples (2):
molecule | Inhibition at 100 μM
CSCC[C@H](NC(=O)[C@@H]1CCCN1C(=O)[C@H](CCC(N)=O)NC(=O)CNC(=O)[C@@H]1CCCN1C(=O)[C@H](CCCCN)NC(=O)[C@H](Cc1ccccc1)NC(=O)[C@H](CCCCN)NC(=O)[C@H](CC(C)C)NC(=O)[C@H](CC(=O)O)NC(=O)[C@H](Cc1c[nH]cn1)NC(=O)[C@@H](N)CCCCN)C(=O)N[C@@H](Cc1ccc(O)cc1)C(=O)O [compound 116] (H-KHDLKFKPGQPMY-OH; N-terminus and C-terminus assumed) | 93.51%
CSCC[C@H](NC(=O)[C@H](CO)NC(=O)[C@H](CO)NC(=O)CNC(=O)[C@@H]1CCCN1C(=O)[C@H](CCCCN)NC(=O)[C@H](CC(C)C)NC(=O)[C@H](CO)NC(=O)[C@H](CC(C)C)NC(=O)[C@H](Cc1c[nH]c2ccccc12)NC(=O)[C@H](CCC(=O)O)NC(=O)[C@@H]1CCCN1)C(=O)N[C@@H](Cc1ccc(O)cc1)C(=O)O [compound 122] (H-PEWLSLKPGSSMY-OH; N-terminus and C-terminus assumed) | <90%

As a next step, examine the molecule that follows.
Task: Entry CSCC[C@H](NC(=O)[C@@H]1CCCN1C(=O)[C@H](CCC(N)=O)NC(=O)CNC(=O)[C@@H]1CCCN1C(=O)[C@H](Cc1c[nH]cn1)NC(=O)[C@H](CC(C)C)NC(=O)[C@H](CCC(=O)O)NC(=O)[C@H](CC(C)C)NC(=O)CNC(=O)[C@H](CCC(N)=O)NC(=O)[C@@H](N)Cc1c[nH]c2ccccc12)C(=O)N[C@@H](Cc1ccc(O)cc1)C(=O)O [compound 129] (H-WQGLELHPGQPMY-OH; N-terminus and C-terminus assumed) has what Inhibition at 100 μM?
Output: <90%

* * *

Tested on: Botrytis cinerea (B05.10)
Assay: Resazurin antifungal assay of 180 alpha-factor peptide variants towards Botrytis (Example 2)
Format: cell-based
Conditions: % inhibition of fungal growth, Botrytis conidia, peptide 100 μM, resazurin
Procedure: The antifungal activity of 180 alpha-factor peptide variants towards Botrytis was tested. Experimental design: […] Fungal conidia were harvested by scraping a Botrytis plate flooded with 1 ml water with 0.1% Tween 80 solution. […] The conidia concentration of the resulting solution was counted using a hemocytometer. […] Peptides were tested for activity against Botrytis, using the resazurin assay. […] Fluorescence was measured at 570/620 nm after 4 h of incubation with resazurin. […]
Peptide text beside a SMILES is read from it.
Measured Inhibition at 100 μM, listed per entry.
Please reply with the bare figure in % and do not write the unit itself.

Answered examples (3):
molecule | target | Inhibition at 100 μM [%]
CSCC[C@H](NC(=O)[C@@H]1CCCN1C(=O)[C@H](CCC(N)=O)NC(=O)CNC(=O)[C@@H]1CCCN1C(=O)[C@H](CCCCN)NC(=O)[C@H](Cc1ccccc1)NC(=O)[C@H](CO)NC(=O)[C@H](CC(C)C)NC(=O)[C@H](Cc1c[nH]c2ccccc12)NC(=O)[C@H](Cc1c[nH]cn1)NC(=O)[C@@H](N)CCCCN)C(=O)N[C@@H](Cc1ccc(O)cc1)C(=O)O [compound 20] (H-KHWLSFKPGQPMY-OH; N-terminus and C-terminus assumed) | Botrytis cinerea (B05.10) | 100
CSCC[C@H](NC(=O)[C@@H]1CCCN1C(=O)[C@H](CCC(N)=O)NC(=O)CNC(=O)[C@@H]1CCCN1C(=O)[C@H](CCCCN)NC(=O)[C@H](CC(C)C)NC(=O)[C@H](CO)NC(=O)[C@H](CC(C)C)NC(=O)[C@H](Cc1ccccc1)NC(=O)[C@H](Cc1c[nH]cn1)NC(=O)[C@@H](N)CCCCN)C(=O)N[C@@H](Cc1ccc(O)cc1)C(=O)O [compound 107] (H-KHFLSLKPGQPMY-OH; N-terminus and C-terminus assumed) | Botrytis cinerea (B05.10) | 98.74
CC[C@H](C)[C@H](NC(=O)[C@H](CCC(N)=O)NC(=O)[C@H](CC(C)C)NC(=O)[C@H](Cc1ccccc1)NC(=O)[C@H](Cc1c[nH]cn1)NC(=O)[C@@H](N)Cc1c[nH]c2ccccc12)C(=O)N[C@@H](CCCCN)C(=O)N1CCC[C@H]1C(=O)NCC(=O)N[C@@H](CCC(N)=O)C(=O)NCC(=O)N[C@@H](CCSC)C(=O)N[C@@H](Cc1ccc(O)cc1)C(=O)O [compound 90] (H-WHFLQIKPGQGMY-OH; N-terminus and C-terminus assumed) | Botrytis cinerea (B05.10) | 100

Task: Entry CSCC[C@H](NC(=O)[C@@H]1CCCN1C(=O)[C@H](CCC(N)=O)NC(=O)CNC(=O)[C@@H]1CCCN1C(=O)[C@H](CCCCN)NC(=O)[C@H](Cc1ccccc1)NC(=O)[C@H](CCCNC(=N)N)NC(=O)[C@H](CC(C)C)NC(=O)[C@H](Cc1c[nH]c2ccccc12)NC(=O)[C@H](Cc1c[nH]cn1)NC(=O)[C@@H](N)CCCCN)C(=O)N[C@@H](Cc1ccc(O)cc1)C(=O)O [compound 9] (H-KHWLRFKPGQPMY-OH; N-terminus and C-terminus assumed) has what Inhibition at 100 μM?
Output: 100

* * *

Tested on: Botrytis cinerea (B05.10)
Assay: Resazurin antifungal assay of 180 alpha-factor peptide variants towards Botrytis (Example 2)
Type: cell-based
Settings: % inhibition of fungal growth, Botrytis conidia, peptide 100 μM, resazurin
Peptide text beside a SMILES is read from it.
assay metric: Inhibition at 100 μM
Respond with a number, then the unit of measure.

Task: Entry CSCC[C@H](NC(=O)[C@@H]1CCCN1C(=O)[C@H](CCC(N)=O)NC(=O)CNC(=O)[C@@H](NC(=O)[C@H](CCC(N)=O)NC(=O)[C@H](Cc1ccccc1)NC(=O)[C@H](CC(N)=O)NC(=O)CNC(=O)[C@H](Cc1c[nH]c2ccccc12)NC(=O)[C@H](Cc1c[nH]cn1)NC(=O)[C@@H](N)Cc1c[nH]c2ccccc12)[C@@H](C)O)C(=O)N[C@@H](Cc1ccc(O)cc1)C(=O)O [compound 157] (H-WHWGNFQTGQPMY-OH; N-terminus and C-terminus assumed) has what Inhibition at 100 μM?
Output: 97.14%
